Source: BindingDB's records for doi:10.1073/pnas.83.13.4918

Biological target: Cholecystokinin (Rattus norvegicus)
Sequence (P01355 whole entry): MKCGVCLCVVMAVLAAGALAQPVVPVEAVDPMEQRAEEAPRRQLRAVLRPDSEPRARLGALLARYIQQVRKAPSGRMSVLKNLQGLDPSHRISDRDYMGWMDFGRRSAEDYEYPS
Where a SMILES comes first, the peptide text is derived from it. [ ]: non-standard residue; d: D form. The star is where a group is joined. sY = N[C@@H](Cc1ccc(OS(=O)(=O)O)cc1)C(=O)O; Cbz = O=C(OCc1ccccc1)*
Threshold-based label: Ki under 300 nM gives MET, Ki not under 300 nM gives NOT MET.

# compound, test-target, label-class
data = [
    ("CN1C(=O)[C@@H](Cc2c[nH]c3ccccc23)N=C(c2ccccc2F)c2ccccc21 [CCK antagonist synthetic 11]", "Cholecystokinin (Rattus norvegicus)", "MET"),
    ("Cc1ccc2c(C(=O)NC3N=C(c4ccccc4F)c4ccccc4NC3=O)c[nH]c2c1 (stereo unspecified) [CCK antagonist synthetic 15]", "Cholecystokinin (Rattus norvegicus)", "NOT MET"),
    ("O=C(NC1N=C(c2ccccc2F)c2ccccc2NC1=O)c1cc2ccccc2[nH]1 (stereo unspecified)", "Cholecystokinin (Rattus norvegicus)", "MET"),
    ("CN1C(=O)[C@@H](Cc2c[nH]c3ccccc23)N=C(c2ccccc2)c2cc(Cl)ccc21 [CCK antagonist synthetic 7]", "Cholecystokinin (Rattus norvegicus)", "NOT MET"),
    ("CC(=O)NC1N=C(c2ccccc2F)c2ccccc2NC1=O (stereo unspecified) [CCK antagonist synthetic 16]", "Cholecystokinin (Rattus norvegicus)", "NOT MET"),
    ("O=C1Nc2ccccc2C(c2ccccc2)=N[C@@H]1Cc1c[nH]c2ccccc12 [CCK antagonist synthetic 8]", "Cholecystokinin (Rattus norvegicus)", "NOT MET"),
    ("O=C1Nc2ccc(Cl)cc2C(c2ccccc2)=N[C@H]1Cc1c[nH]c2ccccc12 [CCK antagonist synthetic 6]", "Cholecystokinin (Rattus norvegicus)", "NOT MET"),
    ("CSCC[C@H](NC(=O)[C@H](Cc1ccc(OS(=O)(=O)O)cc1)NC(=O)OCc1ccccc1)C(=O)NCC(=O)N[C@@H](Cc1c[nH]c2ccccc12)C(=O)N[C@@H](CCSC)C(=O)N[C@@H](CC(=O)O)C(N)=O [Benzyloxycarbonyl CCK(27-32)NH2] (Cbz-[sY]MGWMD-NH2)", "Cholecystokinin (Rattus norvegicus)", "NOT MET"),
    ("O=C1Nc2ccccc2C(c2ccccc2F)=N[C@@H]1Cc1c[nH]c2ccccc12 [CCK antagonist synthetic 9]", "Cholecystokinin (Rattus norvegicus)", "NOT MET"),
    ("O=C(NC1N=C(c2ccccc2)c2ccccc2NC1=O)c1cc2ccccc2[nH]1 (stereo unspecified)", "Cholecystokinin (Rattus norvegicus)", "MET"),
    ("CN1C(=O)C(NC(=O)c2cc3ccccc3[nH]2)N=C(c2ccccc2)c2cc(F)ccc21 (stereo unspecified) [CCK antagonist synthetic 22]", "Cholecystokinin (Rattus norvegicus)", "MET"),
    ("O=C(NC(Cc1c[nH]c2ccccc12)C(=O)O)c1ccc(Cl)cc1 (stereo unspecified)", "Cholecystokinin (Rattus norvegicus)", "NOT MET"),
    ("O=C(O)CN1C(=O)C(NC(=O)c2cc3ccccc3[nH]2)N=C(c2ccccc2)c2ccccc21 (stereo unspecified) [CCK antagonist synthetic 20]", "Cholecystokinin (Rattus norvegicus)", "MET"),
    ("O=C1Nc2ccc(Cl)cc2C(c2ccccc2)=N[C@@H]1Cc1c[nH]c2ccccc12", "Cholecystokinin (Rattus norvegicus)", "NOT MET"),
]
